Reported endpoint: melting point

# Molecule, melting point
rows = [
    ("Cc1ccc(C=Nc2c(-c3ccccc3C)nc3c4ccccc4ccn23)cc1", "160 °C"),
]

Which melting point is listed for IC=CC(CC1CCCC1)OC(c1ccccc1)(c1ccccc1)c1ccccc1 (centres undefined) ?
87 to 88 °C

Recorded melting point of Cc1nc(-c2cccc(C(F)(F)F)c2)oc1COc1ccc(CCC(=O)O)cc1 , please.
134 to 135 °C

# query: melting point of entry CCOC(=O)c1ncn2c1C(C)N=C(c1ccccc1F)c1cc(C#C[Si](C)(C)C)ccc1-2 (centres undefined)
186 to 187 °C

Fill in the blank: the reported melting point of COc1ccc(C(=O)Oc2ccc(C(=O)O)cc2)cc1C12CC3CC(CC(C3)C1)C2 is ____.
265 to 267 °C

Fill in: melting point of O=C1c2cc(Cl)ccc2Cc2cccc(Cl)c21 is ___
160 to 165 °C

For the molecule shown here, CCCCCCCCCCCCCCCCCCN(OCCCC)C(CCCCCCCCCCCCCCCCC)P(=O)(OCCCC)OCCCC (centres undefined) , give the reported melting point.
38 to 40 °C

For Cc1ncn(-c2ccc(NC(=O)OCc3ccccc3)cc2F)n1 , what is its reported melting point?
153 to 155 °C

Entry under review: COc1cc2c(cc1OC)C(C(S)(C#N)CCC(=O)OCCC(C)C)=NCC2 (centres undefined) . Reported melting point?
120 °C

Returns the measured melting point for the input molecule. Input: CCSc1nc(O)nn1CC
65 to 68 °C

====

Reported endpoint: melting point

Quick one: melting point of Cc1c2c(cc3c(=O)c4ccccc4oc13)CC(CO)O2 (stereo not drawn) ?
242 to 243 °C

Suppose we examine the compound O=CC1(c2ccc(Br)cc2)CC=CO1 (stereo not drawn) ; what melting point value has been reported?
154 °C

Look at this compound and give its reported melting point. Cc1ccc(-c2c(NS(=O)(=O)c3ccc(C(C)(C)C)cc3)ncnc2OCCOc2ncc(C=O)cn2)cc1
191 to 193 °C

====

Reported endpoint: melting point

# Compound, melting point
data = [
    ("CCOC(=O)c1c(Nc2cc(F)ccc2N)sc2ccccc12", "141 to 142 °C"),
    ("CC(=O)SCC(Cc1ccccc1)C(=O)Nc1ccc(C(=O)O)c(O)c1 (stereo not given)", "141 to 142 °C"),
    ("CC(O)c1cncc(C2(O)CCN(CC34CC(c5ccccc53)c3ccccc34)CC2)c1 (stereo not given)", "177 to 183 °C"),
    ("c1ccc2c(c1)CCn1cnnc1C2", "191 °C"),
]

Consider the compound CCCCn1c(=O)c2c(ncn2S(=O)(=O)c2ccc(NO)cc2)n(CCCC)c1=O and give its measured melting point.
148 to 150 °C

Consider the compound O=C1NCCc2c(OCC(O)CN3CCCCC3)cccc21 (stereo not given) and give its measured melting point.
162 to 164 °C

# get_value(readout='melting point', item= CCOC(=O)c1c(CCc2ccccc2)nc2c(cnn2CC)c1O )
153 to 155 °C

Returns the measured melting point for the input compound. Input: Cc1cc(-c2ncn3c(C(F)(F)F)cc(-c4ccc(Br)cc4)nc23)ccn1
249 °C

What measured melting point goes with Cc1noc(NC(=O)N2CCN(c3ccnc(-c4cccc(F)c4F)n3)CC2)c1C ?
209 to 210 °C

I would be grateful if you could share the reported melting point for CCOC(=O)c1c(CN(CC)CC)nc2cc(OC)c(OC)cc2c1-c1ccc(Cl)cc1 .
82 to 83 °C
